# Tested on: ATP;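 also: ATP exposure 15 min at 22 °C before imaging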
# RUN DESCRIPTION: switch fluorescence ratio, 500 uM ATP over buffer (Cy3 cluster intensity, sum of 5 cycles each) (fold (ratio)); higher = stronger signal-on switching upon ATP binding; sequences stand for … in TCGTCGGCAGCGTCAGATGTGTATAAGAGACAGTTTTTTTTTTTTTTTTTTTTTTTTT…TC
# TEST CONTEXT: aptamer strand: ATP DNA aptamer (quencher-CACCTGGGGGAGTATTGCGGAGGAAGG + anchor), 100 nM annealed; ATP concentration: 500 uM
In this section, each of the sequences is paired with its reported switch fluorescence ratio.
QUANTITY KIND: switch fluorescence ratio

> print(dat)
    seq.string              quantity.kind  result
 1  AGAAAATTTT  switch fluorescence ratio    1.03
 2  AAGCATCATA  switch fluorescence ratio   0.988
 3  ACAAGGAGGC  switch fluorescence ratio   0.983
 4  CCTGTCAGGC  switch fluorescence ratio    1.04
 5  CTTTTGAGAC  switch fluorescence ratio    1.02
 6  ATATGCTTTC  switch fluorescence ratio   0.994
 7  ATAAGTTTTT  switch fluorescence ratio       1
 8  TCCGCAGATT  switch fluorescence ratio    4.02
 9  TTACCGGGCA  switch fluorescence ratio    1.03
10  TTGGGGATAA  switch fluorescence ratio    1.07
11  TAGTGACACG  switch fluorescence ratio    1.03
12  AAAGATAGGG  switch fluorescence ratio    1.01
13  CATGTGAAGG  switch fluorescence ratio   0.966
14  ATTTTTGTCA  switch fluorescence ratio   0.985
15  CTGTATCAAG  switch fluorescence ratio   0.999
16  CTGGTGGCCG  switch fluorescence ratio       1
17  AGTCGATGTC  switch fluorescence ratio   0.976
18    TGAAGTCG  switch fluorescence ratio   0.999
19  GCCTTGTATG  switch fluorescence ratio   0.976
20  TTTGTGAGGT  switch fluorescence ratio    1.01
21  TTTTGTTGCG  switch fluorescence ratio    1.03
